# EXPERIMENTAL_TARGET: Ubiquitin carboxyl-terminal hydrolase 17-like protein 5 (Homo sapiens) (UniProt A8MUK1)
# Sequence (A8MUK1 whole entry, looked up): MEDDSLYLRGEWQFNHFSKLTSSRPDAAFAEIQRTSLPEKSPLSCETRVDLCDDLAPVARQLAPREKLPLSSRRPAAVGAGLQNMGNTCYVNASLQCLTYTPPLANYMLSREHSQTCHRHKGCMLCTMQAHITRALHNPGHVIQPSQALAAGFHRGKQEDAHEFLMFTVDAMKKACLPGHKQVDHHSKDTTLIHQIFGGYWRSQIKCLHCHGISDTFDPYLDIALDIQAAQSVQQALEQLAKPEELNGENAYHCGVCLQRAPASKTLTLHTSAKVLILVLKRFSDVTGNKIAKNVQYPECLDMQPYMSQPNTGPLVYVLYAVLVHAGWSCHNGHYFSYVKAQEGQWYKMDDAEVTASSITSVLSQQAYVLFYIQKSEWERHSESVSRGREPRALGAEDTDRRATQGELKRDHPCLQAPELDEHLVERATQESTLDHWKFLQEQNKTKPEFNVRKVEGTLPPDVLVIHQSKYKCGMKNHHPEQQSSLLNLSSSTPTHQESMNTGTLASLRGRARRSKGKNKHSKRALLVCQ
# PROCEDURE_SUMMARY: ubiquitin-specific protease 17 DUB inhibitors, concentration-effect assay, cell-free, verification of initial screening actives (AID 1645864)
# RUN_CONDITIONS: purified USP17, ubiquitin-rhodamine cleavage fluorescence, 3 h
The source made the active and inactive calls.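 The calls were made as follows: active = maximal inhibition of USP17 at or above 30% in the confirmation dose-response, a value not among the printed readouts; inactive = the rest.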
For each of the compounds below, state its IC50.

Entry Cc1cc(C)cc(N(CCC(=O)Nc2ccc(N3CCOCC3)cc2)S(=O)(=O)c2ccc(Cl)cc2)c1 : IC50 on Ubiquitin carboxyl-terminal hydrolase 17-like protein 5 (Homo sapiens) (UniProt A8MUK1) = 18.2 µM

# value of IC50, Ubiquitin carboxyl-terminal hydrolase 17-like protein 5 (Homo sapiens) (UniProt A8MUK1), item O=C(Cn1c(=O)c2sccc2n(Cc2ccc([N+](=O)[O-])cc2)c1=O)NCCc1ccccc1 = 26.8 µM

Fill in: Ubiquitin carboxyl-terminal hydrolase 17-like protein 5 (Homo sapiens) (UniProt A8MUK1) IC50 for COc1ccc(-n2ccn3c(CCC(=O)NCc4ccc(F)cc4)nnc3c2=O)cc1 = 33 µM

The compound O=C1CC(O)C(O)c2cccc(O)c21 (stereo unspecified) , when measured on Ubiquitin carboxyl-terminal hydrolase 17-like protein 5 (Homo sapiens) (UniProt A8MUK1), yielded IC50 of 9.86 µM

Hey, Ubiquitin carboxyl-terminal hydrolase 17-like protein 5 (Homo sapiens) (UniProt A8MUK1) data for Cc1ccc(-c2nc(Cn3cnc4ccccc4c3=O)cs2)cc1 : IC50 came out at 7.32 µM

The compound COc1cc(O)c2c(O)c3c(cc2c1)CC(C)OC3=O (stereo unspecified) on Ubiquitin carboxyl-terminal hydrolase 17-like protein 5 (Homo sapiens) (UniProt A8MUK1): IC50 was 6.24 µM

Record for CCC(C)c1ccc(O[C@@H]2O[C@@H]3COC(c4ccccc4)O[C@H]3[C@H](O)[C@H]2NC(C)=O)cc1 (stereo partly specified) under target or system Ubiquitin carboxyl-terminal hydrolase 17-like protein 5 (Homo sapiens) (UniProt A8MUK1): IC50 reported as 16.6 µM

Value (IC50, Ubiquitin carboxyl-terminal hydrolase 17-like protein 5 (Homo sapiens) (UniProt A8MUK1)) for record Cc1cc(C)c2cc3c(nc2c1)OC(=O)N(Cc1ccco1)C3 = 30.9 µM

Form field, IC50 with Ubiquitin carboxyl-terminal hydrolase 17-like protein 5 (Homo sapiens) (UniProt A8MUK1), item N#Cc1cccc(NC(=O)Cn2cccc(-c3nc(-c4ccccc4)no3)c2=O)c1 : > 50 µM (inactive)

IC50 on Ubiquitin carboxyl-terminal hydrolase 17-like protein 5 (Homo sapiens) (UniProt A8MUK1) for O=C1C=C(O)c2c(O)cccc2C1=O is 11.9 µM

Entry COc1ccc(NC(=O)C2CC(=O)Nc3cc(-c4ccccc4)nn32)cc1 (stereo unspecified) under Ubiquitin carboxyl-terminal hydrolase 17-like protein 5 (Homo sapiens) (UniProt A8MUK1) had IC50 of 22.9 µM

The recorded IC50 with Ubiquitin carboxyl-terminal hydrolase 17-like protein 5 (Homo sapiens) (UniProt A8MUK1) for O=C(Cn1cnc2c(cnn2-c2ccc(Cl)cc2)c1=O)NCc1ccccc1Cl was 3.43 µM

For the compound CC(C)c1ccc(/C=C/C(=O)N2CCc3ccccc3C2)cc1 , the measured IC50 on Ubiquitin carboxyl-terminal hydrolase 17-like protein 5 (Homo sapiens) (UniProt A8MUK1) was 21.1 µM

# lookup: CC(=O)N1CCc2cc(S(=O)(=O)NCCC(=O)Nc3cccc(C)c3C)ccc21 on Ubiquitin carboxyl-terminal hydrolase 17-like protein 5 (Homo sapiens) (UniProt A8MUK1), IC50 = 23.7 µM

For Cc1cccc(O)c1-c1nc2c(-c3nc4c(C(=O)O)cccc4o3)cccc2o1 on Ubiquitin carboxyl-terminal hydrolase 17-like protein 5 (Homo sapiens) (UniProt A8MUK1), measured IC50 was > 50 µM (inactive)

Cc1cccc(C(=O)Nc2cccc(SC(C(=O)Nc3ccc(O)c(C(=O)O)c3)c3ccccc3)c2)c1 (stereo unspecified) tested on Ubiquitin carboxyl-terminal hydrolase 17-like protein 5 (Homo sapiens) (UniProt A8MUK1) gave IC50: 11.5 µM

Reported IC50 (Ubiquitin carboxyl-terminal hydrolase 17-like protein 5 (Homo sapiens) (UniProt A8MUK1)) for entry COc1ccc(CN(C(=O)c2cc(-c3ccc(C)cc3)on2)C2CCS(=O)(=O)C2)cc1 (stereo unspecified) is 17.3 µM

Measured on Ubiquitin carboxyl-terminal hydrolase 17-like protein 5 (Homo sapiens) (UniProt A8MUK1), COc1cc([C@@H]2c3cc4c(cc3C[C@@H]3COC(=O)[C@H]32)OCO4)cc(OC)c1OC has a documented IC50 of 17.3 µM

I looked up COc1ccccc1C(=O)N1CCc2[nH]c3ccc(F)cc3c2C1 and its IC50 for Ubiquitin carboxyl-terminal hydrolase 17-like protein 5 (Homo sapiens) (UniProt A8MUK1) was > 50 µM (inactive)

Form field, IC50 with Ubiquitin carboxyl-terminal hydrolase 17-like protein 5 (Homo sapiens) (UniProt A8MUK1), item CC(C)c1ccc(C(C(=O)NC2CCCCC2)N(C(=O)c2cnccn2)c2cccc(F)c2)cc1 (stereo unspecified) : 27.2 µM

Sample COc1ccc(CCNC(=O)c2cc3ccccc3s2)cc1OC , system: Ubiquitin carboxyl-terminal hydrolase 17-like protein 5 (Homo sapiens) (UniProt A8MUK1). Its IC50 is > 50 µM (inactive)
